Below are IC50 values recorded for ERK-2 kinase (Homo sapiens, UniProt P28482).
property: IC50 (nM)

mol_smiles=CN(C)C[C@@H](NC(=O)c1nc2cc3c(-c4ccncc4)n[nH]c3cc2[nH]1)c1ccccc1 experimental_target="ERK-2 kinase (Homo sapiens, UniProt P28482)" value=1.67
mol_smiles=O=C(NNc1ccccc1)c1nc2cc3c(-c4ccncc4)n[nH]c3cc2[nH]1 experimental_target="ERK-2 kinase (Homo sapiens, UniProt P28482)" value=0.08
mol_smiles=C[C@@H](NC(=O)c1nc2cc3c(-c4ccncc4)n[nH]c3cc2[nH]1)c1ccccn1 experimental_target="ERK-2 kinase (Homo sapiens, UniProt P28482)" value=3.13
mol_smiles=CC[C@@H](NC(=O)c1nc2cc3c(-c4ccncc4)n[nH]c3cc2[nH]1)c1ccccc1 experimental_target="ERK-2 kinase (Homo sapiens, UniProt P28482)" value=1.15
mol_smiles=C[C@@H](NC(=O)c1nc2cc3c(-c4ccncc4)n[nH]c3cc2[nH]1)c1ccc(Br)cc1 experimental_target="ERK-2 kinase (Homo sapiens, UniProt P28482)" value=2.72

---

experimental-target: ERK-1 kinase (Homo sapiens, UniProt P27361)
Sequence (P27361 whole entry): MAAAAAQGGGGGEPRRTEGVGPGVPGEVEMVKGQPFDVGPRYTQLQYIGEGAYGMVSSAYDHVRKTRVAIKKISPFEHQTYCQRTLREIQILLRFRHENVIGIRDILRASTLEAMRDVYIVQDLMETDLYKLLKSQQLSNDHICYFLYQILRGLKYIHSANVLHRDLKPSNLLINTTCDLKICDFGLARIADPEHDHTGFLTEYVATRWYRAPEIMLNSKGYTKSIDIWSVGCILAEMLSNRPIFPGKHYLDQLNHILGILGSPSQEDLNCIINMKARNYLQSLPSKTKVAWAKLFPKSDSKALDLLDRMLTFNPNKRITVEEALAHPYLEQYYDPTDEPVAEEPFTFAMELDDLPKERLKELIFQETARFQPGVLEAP
property: IC50 (nM)

mol_smiles=C[C@@H](NC(=O)c1nc2cc3c(-c4ccncc4)n[nH]c3cc2[nH]1)c1cccc(C(F)(F)F)c1 value=1
mol_smiles=CC[C@@H](NC(=O)c1nc2cc3c(-c4ccncc4)n[nH]c3cc2[nH]1)c1ccccc1 value=2.34
mol_smiles=O=C(NNc1ccccc1)c1nc2cc3c(-c4ccncc4)n[nH]c3cc2[nH]1 value=0.25
mol_smiles=Cc1cc(-c2n[nH]c3cc4[nH]c(C(=O)N[C@H](C)c5ccccc5)nc4cc23)ccn1 value=1.08
